Test system: 935938-334-R-J1-PDC spheroids with HUVEC/MSC, viability;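 note: compound exposure lasted seven days before viability was read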
Assay: Anticancer human tumor 935938-334-R-J1-PDC patient-derived small intestine adenocarcinoma cell line growth inhibition [PI3K]
Conditions: curve of first compound; second compound 10 µM
pIC50: −log10 of the molar value.

- Molecule: "Cn1ncc(Cl)c1-c1cc(C(=O)NC(CN)Cc2cccc(F)c2)sc1Cl (stereo not given) + CC(Nc1ncnc2nc[nH]c12)c1cc2cccc(Cl)c2c(=O)n1-c1ccccc1"
  Limit Qualifier: "="
  pIC50: 6.57
- Molecule: "CC1(C)CCC(Nc2ncc(C(F)(F)F)c(-c3c[nH]c4c(P(C)(C)=O)c(C#N)ccc34)n2)CN1 (stereo not given) + CC(Nc1ncnc2nc[nH]c12)c1cc2cccc(Cl)c2c(=O)n1-c1ccccc1"
  Limit Qualifier: ">"
  pIC50: 7.50
- Molecule: "CC(C)NCC(C(=O)N1CCN(c2ncnc3c2C(C)CC3O)CC1)c1ccc(Cl)cc1 (stereo not given) + CC(Nc1ncnc2nc[nH]c12)c1cc2cccc(Cl)c2c(=O)n1-c1ccccc1"
  Limit Qualifier: "="
  pIC50: 5.72
- Molecule: "CC1(C)CCC(CN2CCN(c3ccc(C(=O)NS(=O)(=O)c4ccc(NCC5CCOCC5)c([N+](=O)[O-])c4)c(Oc4cnc5[nH]ccc5c4)c3)CC2)=C(c2ccc(Cl)cc2)C1 + Cc1nc(NC(=O)N2CCCC2C(N)=O)sc1-c1ccnc(C(C)(C)C(F)(F)F)c1"
  Limit Qualifier: ">"
  pIC50: 7.50
- Molecule: "CC(=O)c1c(C)c2cnc(Nc3ccc(N4CCNCC4)cn3)nc2n(C2CCCC2)c1=O + Cc1nc(NC(=O)N2CCCC2C(N)=O)sc1-c1ccnc(C(C)(C)C(F)(F)F)c1"
  Limit Qualifier: ">"
  pIC50: 9.50
